Tested on: Vero E6 cells
Conditions: 72 h
assay-metric: CC50 (mean ± SD)

Answered cases to consult:
CC[C@H](C)[C@H](NC(=O)[C@H](CCC(N)=O)NC(=O)[C@H](CC(C)C)NC(=O)[C@H](C)NC(=O)[C@H](C)NC(=O)CNC(=O)[C@H](C)NC(=O)CNC(=O)[C@H](Cc1ccccc1)NC(C)=O)C(=O)N[C@@H](C)C(=O)N[C@@H](Cc1ccccc1)C(=O)N[C@@H](C)C(=O)N[C@@H](CCSC)C(=O)N[C@@H](CCC(N)=O)C(=O)N[C@@H](CCSC)C(=O)N[C@@H](C)C(=O)N[C@@H](Cc1ccc(O)cc1)C(=O)N[C@@H](CCCNC(=N)N)C(=O)N[C@@H](Cc1ccccc1)C(N)=O [PN19P→A897] = > 100 µM
CSCC[C@H](NC(=O)[C@H](C)NC(=O)[C@H](Cc1ccccc1)NC(=O)[C@@H]1CCCN1C(=O)[C@H](C)NC(=O)[C@H](CCC(N)=O)NC(=O)[C@H](CC(C)C)NC(=O)[C@H](C)NC(=O)[C@H](C)NC(=O)CNC(=O)[C@H](C)NC(=O)CNC(=O)[C@H](Cc1ccccc1)NC(C)=O)C(=O)N[C@@H](CCC(N)=O)C(=O)N[C@@H](CCSC)C(=O)N[C@@H](C)C(=O)N[C@@H](Cc1ccc(O)cc1)C(=O)N[C@@H](CCCNC(=N)N)C(=O)N[C@@H](Cc1ccccc1)C(N)=O [PN19I→A896] = > 100 µM
CC[C@H](C)[C@H](NC(=O)[C@H](CCC(N)=O)NC(=O)[C@H](CC(C)C)NC(=O)[C@H](C)NC(=O)[C@H](C)NC(=O)CNC(=O)[C@H](C)NC(=O)CNC(=O)[C@H](Cc1ccccc1)NC(C)=O)C(=O)N1CCC[C@H]1C(=O)N[C@@H](Cc1ccccc1)C(=O)N[C@@H](C)C(=O)N[C@@H](CCSC)C(=O)N[C@@H](CCC(N)=O)C(=O)N[C@@H](CCSC)C(=O)N[C@@H](C)C(=O)N[C@@H](Cc1ccc(O)cc1)C(=O)N[C@@H](C)C(=O)N[C@@H](Cc1ccccc1)C(N)=O [PN19R→A905] = > 100 µM
CC[C@H](C)[C@H](NC(=O)[C@H](CCC(N)=O)NC(=O)[C@H](CC(C)C)NC(=O)[C@H](C)NC(=O)[C@H](C)NC(=O)CNC(=O)[C@H](C)NC(=O)CNC(=O)[C@H](Cc1ccccc1)NC(=O)[C@@H](NC(=O)[C@H](Cc1c[nH]c2ccccc12)NC(=O)CNC(=O)[C@H](CO)NC(C)=O)[C@@H](C)O)C(=O)N1CCC[C@H]1C(=O)N[C@@H](Cc1ccccc1)C(=O)N[C@@H](C)C(=O)N[C@@H](CCSC)C(N)=O = > 100 µM
CC[C@H](C)[C@H](NC(=O)[C@H](CCC(N)=O)NC(=O)[C@H](CC(C)C)NC(=O)[C@H](C)NC(=O)[C@H](C)NC(=O)CNC(=O)[C@H](C)NC(=O)CNC(=O)[C@H](C)NC(C)=O)C(=O)N1CCC[C@H]1C(=O)N[C@@H](Cc1ccccc1)C(=O)N[C@@H](C)C(=O)N[C@@H](CCSC)C(=O)N[C@@H](CCC(N)=O)C(=O)N[C@@H](CCSC)C(=O)N[C@@H](C)C(=O)N[C@@H](Cc1ccc(O)cc1)C(=O)N[C@@H](CCCNC(=N)N)C(=O)N[C@@H](Cc1ccccc1)C(N)=O [PN19F→A888] = > 100 µM

Next:
q: Test system Vero E6 cells; read-out CC50 (mean ± SD); what value for CC[C@H](C)[C@H](NC(=O)[C@H](CCC(N)=O)NC(=O)[C@H](CC(C)C)NC(=O)[C@H](C)NC(=O)[C@H](C)NC(=O)CNC(=O)[C@H](C)NC(=O)CNC(=O)[C@H](Cc1ccccc1)NC(C)=O)C(=O)N1CCC[C@H]1C(=O)N[C@@H](Cc1ccccc1)C(=O)N[C@@H](C)C(=O)N[C@@H](CCSC)C(=O)N[C@@H](CCC(N)=O)C(=O)N[C@@H](CCSC)C(=O)N[C@@H](C)C(=O)N[C@@H](Cc1ccc(O)cc1)C(=O)N[C@@H](CCCNC(=N)N)C(=O)N[C@@H](Cc1ccccc1)C(N)=O ?
a: > 100 µM
